Data origin: paper PMC6883931

Target: recombinant α3L GlyRs expressed in HEK293 cells (Homo sapiens, UniProt O75311)
Construct: expressed in transfected cells; host or cells: HEK293
Sequence (O75311 34-464): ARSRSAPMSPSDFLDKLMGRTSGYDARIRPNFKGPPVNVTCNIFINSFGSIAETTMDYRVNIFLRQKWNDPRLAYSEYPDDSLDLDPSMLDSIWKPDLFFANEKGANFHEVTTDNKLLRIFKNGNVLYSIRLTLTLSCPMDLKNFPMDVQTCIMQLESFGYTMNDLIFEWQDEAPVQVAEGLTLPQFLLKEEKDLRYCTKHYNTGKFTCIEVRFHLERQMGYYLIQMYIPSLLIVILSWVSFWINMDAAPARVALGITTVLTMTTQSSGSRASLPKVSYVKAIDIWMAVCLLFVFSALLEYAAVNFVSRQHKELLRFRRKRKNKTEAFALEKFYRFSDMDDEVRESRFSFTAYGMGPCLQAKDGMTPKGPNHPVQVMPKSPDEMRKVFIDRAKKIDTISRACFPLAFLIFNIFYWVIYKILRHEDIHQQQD
Test: Whole-cell patch-clamp recordings of GlyR-transfected HEK293 cells
Format: cell-based
Details: Ki of strychnine (Cheng-Prusoff), 60 μM glycine; cells pretreated with 50 mM glucose
endpoint_label: Ki (nM)
Your answer is read as nM, so omit the unit and give the number.

Task item: API: value(readout= Ki, system= recombinant α3L GlyRs expressed in HEK293 cells (Homo sapiens, UniProt O75311), query= `O=C1C[C@@H]2OCC=C3CN4CC[C@]56c7ccccc7N1[C@H]5[C@H]2[C@H]3C[C@H]46` )
Reply: 19.8
